As shown below, each of these molecules has a reported TGI value.
# System: T-47D breast
# MEASUREMENT_NOTES: NCI tumour cell line growth inhibition, 48 h
Answer format: numeric, µM implied, no suffix.

Examples with their reported TGI follow.
SMILES_REPRESENTATION | NUMBER
COc1cc2c(/C=C3/C(=O)Nc4cc(C)c(O)cc43)c(Cl)[nH]c2cc1C | 18.2
CC(C)(C)c1cc(C(C)(C)C)c(SSc2c(C(C)(C)C)cc(C(C)(C)C)c(O)c2O)c(O)c1O | 27.2

Asked: Query (molecule): O=[N+]([O-])/C(C(Cl)=C(Cl)Cl)=C(\NCc1ccccc1)Sc1ccccc1 ; field requested: TGI
Given back: 71.7

----------
As shown below, each of these compounds has a reported TGI value.
# Test system: DMS 273 small cell lung
# MEASUREMENT_NOTES: NCI tumour cell line growth inhibition, 48 h

Examples with their reported TGI follow.
COMPOUND | OBSERVED_PROPERTY | RESULT
NNC(=S)N/N=C(\c1nc2ccc(Cl)cc2[nH]c1=O)C(O)c1cccc([N+](=O)[O-])c1 (configuration not stated) | TGI | > 58.7 µM
CN1C=C(C(N)=O)Cc2ccsc21 | TGI | > 100 µM
COc1cc(C(C)c2cc3c(cc2OCCCCCOc2cc4c(cc2C(C)c2cc(OC)c(OC)c(OC)c2)OCO4)OCO3)cc(OC)c1OC (configuration not stated) | TGI | > 100 µM
Cc1c2cnccc2c(C)c2c1c1ccccc1n2CCCCCCCl | TGI | > 50 µM
CC(=O)NC1=C(NCCO)C(=O)c2ccccc2C1=O | TGI | > 50 µM
COc1cc(C2c3cc4c(cc3[C@@H](Nc3cnc5ccccc5c3)C3COC(=O)[C@H]23)OCO4)cc(OC)c1O (some centres not stated) | TGI | 1.34 µM
CC12CC(Br)(Br)C(=O)C3C1CCCC32 | TGI | 18.2 µM
CN(C)c1ccc(-c2nc(N)nc3c2CCCC3)cc1 | TGI | > 100 µM

Asked: Query (compound): CC[C@@]1(O)C(=O)OCc2c1cc1n(c2=O)Cc2cc3c(N)c(OC)ccc3nc2-1 ; field requested: TGI
Given back: 0.36 µM

Asked: Please do the same for O=C(O)C(Cc1ccc(O)cc1)N=Cc1nc(-c2ccccc2)oc1O (configuration not stated) as well.
Given back: > 100 µM

----------
# Test system: OVCAR-5 ovarian
# MEASUREMENT_NOTES: NCI tumour cell line growth inhibition, 48 h
As shown below, each of these compounds has a reported TGI value.

COMPOUND | TGI
O=C(OCc1ccccc1)N1N=NC2C3CC(OCc4ccccc4)(OCc4ccccc4)C(O3)C21 (stereo not given) | 70.4 µM
Cc1ccc(-c2csc3ncnc(Nc4cccc(O)c4)c23)cc1 | 69.6 µM
CCCOC(=O)C1C(c2ccc(OC)cc2)NC(c2ccc(OC)cc2)C(C(=O)OCCC)S1(=O)=O (stereo not given) | > 100 µM
CCOC(=O)/C(=C\n1c(=O)sc2ccccc21)C(=O)c1ccccc1 | > 100 µM
Cc1c2cnccc2c(C)c2c1c1ccccc1n2CCCCCCCl | > 50 µM
COc1cc2c(/C=C3/C(=O)Nc4cc(C)c(O)cc43)c(Cl)[nH]c2cc1C | 15.6 µM
CC(C)CC1C(=O)OC(C)(C)OC1=O | > 100 µM
COC(=O)N1C=CC2=C(C)C3Nc4ccccc4C3C(C)=C2C1 (stereo not given) | > 100 µM

Asked: Query (compound): O=C(N/N=C/c1coc2ccc(Cl)cc2c1=O)c1cc(O)c(O)c(O)c1 ; field requested: TGI
Given back: 74.9 µM

Asked: Please do the same for Clc1nc(NC23CC4CC(CC(C4)C2)C3)nc(NC23CC4CC(CC(C4)C2)C3)n1 as well.
Given back: > 100 µM
